Data provenance is patent US9969775B2.

Listed below: IC50 values for each entry.
tested_on: hCGRP receptor (CALCRL:RAMP1) (Homo sapiens, UniProt O60894+Q16602)
Construct: host or cells: GeneBLAzer CALCRL:RAMP1-CRE-bla Freestyle 293F
Sequence (Q16602 23-461): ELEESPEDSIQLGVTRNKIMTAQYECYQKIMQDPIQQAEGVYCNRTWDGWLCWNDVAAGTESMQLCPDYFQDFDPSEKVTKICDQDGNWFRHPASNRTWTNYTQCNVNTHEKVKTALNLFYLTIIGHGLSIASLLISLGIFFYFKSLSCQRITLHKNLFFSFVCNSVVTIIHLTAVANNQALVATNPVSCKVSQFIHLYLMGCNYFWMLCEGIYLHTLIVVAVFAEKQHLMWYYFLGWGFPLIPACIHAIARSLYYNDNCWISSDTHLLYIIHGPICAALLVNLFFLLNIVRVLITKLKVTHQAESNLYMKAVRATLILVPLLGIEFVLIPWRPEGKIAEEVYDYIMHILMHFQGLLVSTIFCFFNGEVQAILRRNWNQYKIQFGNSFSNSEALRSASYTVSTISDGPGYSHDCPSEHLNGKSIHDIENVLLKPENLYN
Sequence (O60894 27-148): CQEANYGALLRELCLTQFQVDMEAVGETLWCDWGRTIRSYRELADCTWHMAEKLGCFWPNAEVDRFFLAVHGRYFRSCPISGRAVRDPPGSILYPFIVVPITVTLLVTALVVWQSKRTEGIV
experiment_notes: CGRP receptor antagonist activity measured by cAMP assay (HTRF)
Type: cell-based
experimental_parameters: GeneBLAzer CALCRL:RAMP1-CRE-bla Freestyle 293F cells; agonist human α-CGRP; 30 minutes; read-out: hCGRP-R IC50 Ave
Excerpt: Example 6: CGRP Receptor Antagonist Activity Measured by cAMP Assay CGRP receptor agonists increase intracellular cyclic adenosine mono-phosphate (cAMP). CGRP receptor antagonists can reduce the agonist effect. […]
Bridge positions count the residues as written; N and C are the ends. Square brackets hold non-standard residues; d marks the D form. Peptide text beside a SMILES is read from it. * marks the point of attachment. Phe(4-NHCONH2) = NC(=O)Nc1ccc(C[C@H](N)C(=O)O)cc1; Phe(2-CONH2) = NC(=O)c1ccccc1C[C@H](N)C(=O)O; Phe(4-CH2NH2) = NCc1ccc(C[C@H](N)C(=O)O)cc1; Imidazole4carbonyl = O=C(c1cnc[nH]1)*; Picolinoyl(5-F) = O=C(c1ccc(F)cn1)*; Orn(iPr) = CC(C)NCCC[C@H](N)C(=O)O; Dab(iPr) = CC(C)NCC[C@H](N)C(=O)O; Benzoyl(4-F) = O=C(c1ccc(F)cc1)*; Oxazole2carbonyl = O=C(c1ncco1)*; 3Pal = N[C@@H](Cc1cccnc1)C(=O)O; Picolinoyl = O=C(c1ccccn1)*; ΔPro = O=C(O)[C@@H]1C=CCN1
Note: unit nM is implicit; provide only the numeric part.

// known answers, use as guide
{"compound": "CC(C)[C@@H]1NC(=O)[C@H](CC(=O)O)NC(=O)[C@H](CCCNC(=N)N)NC(=O)[C@@H](NC(=O)[C@H](Cc2ccc(O)cc2)NC(=O)[C@H](NC(=O)c2ccc(F)cc2)C(C)C)CSSC[C@@H](C(=O)N[C@@H](Cc2cccnc2)C(N)=O)NC(=O)[C@H](Cc2ccccc2)NC(=O)[C@@H]2CCCN2C(=O)CNC1=O [Compound 1] ({Benzoyl(4-F)}-[dV]YCRDVGPFC[3Pal]-NH2; disulfide 3-10)", "tested_on": "hCGRP receptor (CALCRL:RAMP1) (Homo sapiens, UniProt O60894+Q16602)", "IC50 / nM": 0.14}
{"compound": "CC(C)NCCC[C@@H]1NC(=O)[C@@H](NC(=O)[C@H](Cc2ccccc2C(N)=O)NC(=O)[C@H](NC(=O)c2ccc(F)cn2)C(C)C)CSSC[C@@H](C(=O)N[C@@H](Cc2cccnc2)C(N)=O)NC(=O)[C@H](Cc2cccnc2)NC(=O)[C@@H]2CCCN2C(=O)CNC(=O)[C@H](C(C)C)NC(=O)[C@H](CC(=O)O)NC1=O [Compound 39] ({Picolinoyl(5-F)}-[dV][Phe(2-CONH2)]C[Orn(iPr)]DVGP[3Pal]C[3Pal]-NH2; disulfide 3-10)", "tested_on": "hCGRP receptor (CALCRL:RAMP1) (Homo sapiens, UniProt O60894+Q16602)", "IC50 / nM": 0.13}
{"compound": "CC(C)[C@@H]1NC(=O)[C@H](CC(=O)O)NC(=O)[C@H](CCCNC(=N)N)NC(=O)[C@@H](NC(=O)[C@H](Cc2ccc(O)cc2)NC(=O)[C@H](NC(=O)c2cnc[nH]2)C(C)C)CSSC[C@@H](C(=O)N[C@@H](Cc2cccnc2)C(N)=O)NC(=O)[C@H](Cc2ccccc2)NC(=O)[C@@H]2CCCN2C(=O)CNC1=O [Compound 37] (Imidazole4carbonyl-[dV]YCRDVGPFC[3Pal]-NH2; disulfide 3-10)", "tested_on": "hCGRP receptor (CALCRL:RAMP1) (Homo sapiens, UniProt O60894+Q16602)", "IC50 / nM": 0.17}
{"compound": "CC(C)NCC[C@@H]1NC(=O)[C@@H](NC(=O)[C@H](Cc2ccc(O)cc2)NC(=O)[C@H](NC(=O)c2ccccn2)C(C)C)CSSC[C@@H](C(=O)N[C@@H](Cc2cccnc2)C(N)=O)NC(=O)[C@H](Cc2ccccc2)NC(=O)[C@@H]2CCCN2C(=O)CNC(=O)[C@H](C(C)C)NC(=O)[C@H](CC(=O)O)NC1=O [Compound 9] (Picolinoyl-[dV]YC[Dab(iPr)]DVGPFC[3Pal]-NH2; disulfide 3-10)", "tested_on": "hCGRP receptor (CALCRL:RAMP1) (Homo sapiens, UniProt O60894+Q16602)", "IC50 / nM": 0.15}
{"compound": "CC(C)NCCC[C@@H]1NC(=O)[C@@H](NC(=O)[C@H](Cc2ccccc2C(N)=O)NC(=O)[C@H](NC(=O)c2ncco2)C(C)C)CSSC[C@@H](C(=O)N[C@@H](Cc2cccnc2)C(N)=O)NC(=O)[C@H](Cc2ccc(NC(N)=O)cc2)NC(=O)[C@@H]2C=CCN2C(=O)CNC(=O)[C@H](C(C)C)NC(=O)[C@H](CC(=O)O)NC1=O [Compound 60] (Oxazole2carbonyl-[dV][Phe(2-CONH2)]C[Orn(iPr)]DVG[ΔPro][Phe(4-NHCONH2)]C[3Pal]-NH2; disulfide 3-10)", "tested_on": "hCGRP receptor (CALCRL:RAMP1) (Homo sapiens, UniProt O60894+Q16602)", "IC50 / nM": 0.12}

Task: Fill in: IC50 of CC(C)NCCC[C@@H]1NC(=O)[C@@H](NC(=O)[C@H](Cc2ccccc2C(N)=O)NC(=O)[C@H](NC(=O)c2ccc(F)cn2)C(C)C)CSSC[C@@H](C(=O)N[C@@H](Cc2cccnc2)C(N)=O)NC(=O)[C@H](Cc2cccnc2)NC(=O)[C@@H]2C=CCN2C(=O)CNC(=O)[C@H](C(C)C)NC(=O)[C@H](CC(=O)O)NC1=O [Compound 38] ({Picolinoyl(5-F)}-[dV][Phe(2-CONH2)]C[Orn(iPr)]DVG[ΔPro][3Pal]C[3Pal]-NH2; disulfide 3-10) is ___
Output: 0.06

Task: Fill in: IC50 of CC(C)[C@@H]1NC(=O)[C@H](CC(=O)O)NC(=O)[C@H](CCCNC(=N)N)NC(=O)[C@@H](NC(=O)[C@H](Cc2ccc(O)cc2)NC(=O)[C@H](NC(=O)c2ccc(F)cc2)C(C)C)CSSC[C@@H](C(=O)N[C@@H](Cc2cccnc2)C(N)=O)NC(=O)[C@H](Cc2ccc(CN)cc2)NC(=O)[C@@H]2CCCN2C(=O)CNC1=O [Compound 20] ({Benzoyl(4-F)}-[dV]YCRDVGP[Phe(4-CH2NH2)]C[3Pal]-NH2; disulfide 3-10) is ___
Output: 0.18
